Examples of compounds with documented activity (Tm shift, normalised) follow.
- system: Fibroblast growth factor 22 (Homo sapiens) (UniProt Q9HCT0)
- Sequence (Q9HCT0 whole entry, looked up): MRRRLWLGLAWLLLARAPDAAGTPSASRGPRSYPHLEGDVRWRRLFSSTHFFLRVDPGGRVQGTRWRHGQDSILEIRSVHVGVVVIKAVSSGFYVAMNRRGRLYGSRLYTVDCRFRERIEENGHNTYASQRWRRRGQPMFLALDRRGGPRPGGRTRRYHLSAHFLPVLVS
- assay.protocol: binders of human FGF22 protein, primary screen, FGF22 synaptogenesis inhibitor project, biophysical, thermal shift, single point (AID 651658)
- measurement.setup: recombinant FGF22 thermal shift, SYPRO orange fluorescence; at 9.99 µM; stronger effect = higher value; percent of sucrose octasulfate shift, DMSO zero
The whole screen tested about 340,000 compounds, of which about 5,100 (1.5%) were called active. This is one part of a sample in which actives are shown more often than they occur.
recorded.endpoint: activity (Tm shift, normalised) (%)

# compound, recorded.endpoint, observed
measured = [
    ("O=C(Cc1ccncc1)NCC[C@H]1CC[C@@H](NC(=O)Nc2ccc(Cl)cc2)[C@@H](CO)O1", "activity (Tm shift, normalised)", -0.005),
    ("COc1ccc(C2=NN(C(=O)c3ccccc3C(=O)O)C(c3ccccc3O)C2)cc1 (centres undefined)", "activity (Tm shift, normalised)", -0.24),
    ("COc1cc(OC)cc(-c2nnc(N(C)C(=O)c3ccncc3)s2)c1", "activity (Tm shift, normalised)", -0.259),
    ("CC(C)NC(=O)N1[C@H](CO)[C@@H]2c3ccccc3N(C(=O)Nc3cccc(Cl)c3)C[C@@H]21", "activity (Tm shift, normalised)", 0.043),
]

* * *

Examples of compounds with documented activity (Tm shift, normalised) follow.
- system: Fibroblast growth factor 22 (Homo sapiens) (UniProt Q9HCT0)
- assay.protocol: binders of human FGF22 protein, primary screen, FGF22 synaptogenesis inhibitor project, biophysical, thermal shift, single point (AID 651658)
- measurement.setup: recombinant FGF22 thermal shift, SYPRO orange fluorescence; at 9.99 µM; stronger effect = higher value; percent of sucrose octasulfate shift, DMSO zero
The whole screen tested about 340,000 compounds, of which about 5,100 (1.5%) were called active. The entries come from a sample that favours actives as a whole.
recorded.endpoint: activity (Tm shift, normalised) (%)

# compound, observed
rows = [
    ("CCCNC(=O)Nc1ccc2c(c1)OC[C@@H](C)N(CCC)C[C@H](C)[C@@H](OC)CN(C)C2=O", 0.109),
    ("Cc1ccc(NC(=O)C(c2ccccc2)N2CCN(C(=O)c3ccco3)CC2)cc1 (stereo not drawn)", -0.162),
    ("Cc1ccc(OCC(=O)Nc2ccc(N3CCN(C(=O)c4ccco4)CC3)cc2)c(C)c1", -0.015),
]

* * *

- system: Fibroblast growth factor 22 (Homo sapiens)
- assay.protocol: binders of human FGF22 protein, primary screen, FGF22 synaptogenesis inhibitor project, biophysical, thermal shift, single point (AID 651658)
- measurement.setup: recombinant FGF22 thermal shift, SYPRO orange fluorescence; at 9.99 µM; percent of sucrose octasulfate shift, DMSO zero
Among all 340,000 compounds or so, about 5,100 (1.5%) were called active.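 How the source made its calls: active means mean Tm shift, scaled 0 neutral to 100 positive control, at about 1.3% or above, every replicate too (limit read from the data); inconclusive means no clear call, values can overlap the other calls; inactive means the rest.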 Many of the other results were omitted from the sample, so actives are more common in it than they were.
Possible outcomes: active, inactive

# molecule, class.name
rows = [
    ("Cc1ccc(S(=O)(=O)N(C)C[C@@H]2OCCCC[C@@H](C)Oc3ccc(NS(=O)(=O)c4ccccc4)cc3C(=O)N([C@H](C)CO)C[C@@H]2C)cc1", "inactive"),
    ("COC(=O)Cc1nc2c(N)nc(N)nc2[nH]c1=O", "active"),
    ("Cn1cc(C(=O)c2ccc(Cl)cc2Cl)cc1C(=O)NN", "inactive"),
    ("C[C@@H]1CN([C@H](C)CO)C(=O)c2cc(NC(=O)Nc3ccc(C(F)(F)F)cc3)ccc2O[C@@H](C)CCCCO[C@@H]1CN(C)Cc1ccc(C(F)(F)F)cc1", "inactive"),
    ("Cc1cccc(CN2CCN(C3CN(Cc4ccccc4)S(=O)(=O)C3)CC2)c1 (centres undefined)", "inactive"),
    ("Cc1ccc(S(=O)(=O)Nc2ccc3c(c2)C(=O)N([C@H](C)CO)C[C@@H](C)[C@H](CN(C)S(=O)(=O)c2ccc(C)cc2)OCCCC[C@@H](C)O3)cc1", "active"),
    ("COc1ccc(Cn2c(=O)oc3ccccc32)cc1", "inactive"),
    ("CN1c2ccc(C#Cc3cccnc3)cc2[C@H]2[C@H](CCN2S(=O)(=O)c2ccccc2)[C@@H]1CO", "inactive"),
    ("C[C@@H]1CCCCO[C@@H](CN(C)Cc2ccc(C(=O)O)cc2)[C@@H](C)CN([C@@H](C)CO)C(=O)c2cc(NC(=O)Nc3ccc(C(F)(F)F)cc3)ccc2O1", "active"),
    ("COc1ccccc1C#Cc1cnc2c(c1)C(=O)N([C@H](C)CO)C[C@H](C)[C@H](CN(C)S(=O)(=O)c1cn(C)cn1)O2", "inactive"),
    ("C/C=C/c1ccc(OCC(O)CN2CCCCCCC2)c(OC)c1 (centres undefined)", "inactive"),
    ("O=C(CN1C(=O)NC2(CCCC2)C1=O)NCC1CCCO1 (centres undefined)", "active"),
    ("C[C@@H](O)C#Cc1ccc([C@H]2[C@H](CO)N3CCCCN(C(=O)c4ccc(F)cc4)C[C@@H]23)cc1", "inactive"),
    ("Cc1ccccc1NC(=O)Cc1nc(COC(=O)CNC(=O)c2ccc(Cl)cc2Cl)cs1", "inactive"),
    ("CCCCN1CC(N2CCN(Cc3cccc(C)c3)CC2)CS1(=O)=O (centres undefined)", "active"),
    ("COc1ccccc1C#Cc1cnc2c(c1)C(=O)N([C@@H](C)CO)C[C@@H](C)[C@@H](CN(C)C(=O)CN(C)C)O2", "inactive"),
    ("COc1ccc(-c2ccc([C@@H]3[C@@H](CO)N4C(=O)CN(Cc5ccccc5)C[C@@H]34)cc2)cc1", "inactive"),
    ("C[C@@H]1CCCCO[C@@H](CN(C)Cc2ccncc2)[C@H](C)CN([C@H](C)CO)C(=O)c2cc(NC(=O)Cc3ccccc3)ccc2O1", "active"),
    ("C=CCc1ccc(OCC(O)CN2CCN(Cc3ccccc3)CC2)c(OC)c1 (centres undefined)", "active"),
]

* * *

- system: Fibroblast growth factor 22 (Homo sapiens)
- assay.protocol: binders of human FGF22 protein, primary screen, FGF22 synaptogenesis inhibitor project, biophysical, thermal shift, single point (AID 651658)
- measurement.setup: recombinant FGF22 thermal shift, SYPRO orange fluorescence; at 9.99 µM; stronger effect = higher value; percent of sucrose octasulfate shift, DMSO zero
In all, about 340,000 compounds went through this assay and about 5,100 (1.5%) were called active. The sample as a whole holds a higher share of actives than the screen did.

# molecule, activity (Tm shift, normalised) (%)
data = [
    ("NS(=O)(=O)c1ccccc1NC(=O)c1c(O)c2ccccc2[nH]c1=O", 0.089),
    ("CCOc1ccc(-c2cc(C(=O)N/N=C/c3ccc(O)cc3)c3ccccc3n2)cc1", 0.307),
    ("Cc1cc(C(=O)O)ccc1[N+](=O)[O-]", 0.06),
    ("Cc1cc(N)n(-c2ccc(S(=O)(=O)N3CCCC3)cc2[N+](=O)[O-])n1", -0.196),
    ("CC1CCCN(CC(O)COc2ccc3c(c2)OCO3)C1 (stereo not drawn)", 0.154),
    ("CC(C)Oc1ccccc1C(=O)NC(CO)C(=O)O (stereo not drawn)", 42.8),
    ("O=C(N/N=C/c1ccc(OCc2ccccc2)cc1)c1ccc(O)cc1", 2.5),
    ("CC(=O)c1c(-c2ccccc2)c2ccccc2[nH]c1=O", 43.2),
]

* * *

Examples of compounds with documented activity (Tm shift, normalised) follow.
- system: Fibroblast growth factor 22 (Homo sapiens) (UniProt Q9HCT0)
- assay.protocol: binders of human FGF22 protein, primary screen, FGF22 synaptogenesis inhibitor project, biophysical, thermal shift, single point (AID 651658)
- measurement.setup: recombinant FGF22 thermal shift, SYPRO orange fluorescence; at 9.99 µM; stronger effect = higher value; percent of sucrose octasulfate shift, DMSO zero
Among all 340,000 compounds or so, about 5,100 (1.5%) were called active. Only a selection was taken, and actives are over-represented in it overall.

# compound, unit.text, activity (Tm shift, normalised)
records = [
    ("CSc1ccc(CN(C)CC(=O)NCc2ccc(F)cc2)cc1", "%", 0.292),
    ("COc1cccc(NC(=O)N2C[C@@H](O)COC[C@@H]3O[C@@H](CC(=O)NC4CCC4)CC[C@H]32)c1", "%", -0.083),
    ("CC=Cc1ccc2n(c1=O)C[C@H]1[C@H](CO)[C@@H](C(=O)NCc3ccncc3)N(Cc3cncnc3)[C@@H]21 (mixture of isomers)", "%", -0.145),
    ("CO[C@H]1CN(C)C(=O)c2cc(NC(=O)C3CCC3)ccc2OC[C@H](C)N(Cc2nccs2)C[C@H]1C", "%", -0.288),
]

* * *

- system: Fibroblast growth factor 22 (Homo sapiens) (UniProt Q9HCT0)
- assay.protocol: binders of human FGF22 protein, primary screen, FGF22 synaptogenesis inhibitor project, biophysical, thermal shift, single point (AID 651658)
- measurement.setup: recombinant FGF22 thermal shift, SYPRO orange fluorescence; at 9.99 µM; stronger effect = higher value; percent of sucrose octasulfate shift, DMSO zero
Hit rate of the full screen: of about 340,000 compounds, about 5,100 (1.5%) were called active. This is one part of a sample in which actives are shown more often than they occur.
recorded.endpoint: activity (Tm shift, normalised)

# compound, observed
rows = [
    ("COC(=O)c1cc(OCC(=O)NC2CCCc3ccccc32)cc(C(=O)OC)c1 (centres undefined)", "0.172% (inactive)"),
    ("CC(=O)N1[C@@H](CO)[C@@H](c2ccc(C3=CCCC3)cc2)C12CN(C(=O)C1CC1)C2", "-0.078% (inactive)"),
    ("C[C@@H]1CN([C@H](C)CO)C(=O)c2cc(NS(=O)(=O)c3cccs3)ccc2O[C@@H](C)CCCCO[C@@H]1CN(C)C(=O)c1ccncc1", "-0.018% (inactive)"),
    ("CO[C@@H]1CN(C)C(=O)c2cc(NS(=O)(=O)c3cccc(F)c3)ccc2OC[C@@H](C)NC[C@@H]1C", "-0.14% (inactive)"),
    ("COc1cccc(NC(=O)C[C@H]2CC[C@@H]3[C@@H](COc4ccc(NC(=O)C5CCOCC5)cc4C(=O)N3C)O2)c1", "0.326% (inactive)"),
    ("S=C(Cc1ccc(Cl)cc1)N1CCOCC1", "43.7% (active)"),
    ("CC=Cc1ccc2n(c1=O)C[C@@H]1[C@@H](CO)[C@H](C(=O)N[C@@H](C)c3ccccc3)[C@H]2N1Cc1ccncc1 (mixture of isomers)", "-0.334% (inactive)"),
    ("CC(C)NC(=O)Nc1ccc2c(c1)C(=O)N([C@H](C)CO)C[C@H](C)[C@H](CN(C)C(=O)CCC(F)(F)F)OCCCC[C@H](C)O2", "-0.429% (inactive)"),
    ("O=C(N/N=C/c1ccc(Cl)c(Cl)c1)c1ccc2nc[nH]c2c1", "1.65% (active)"),
]
